Data provenance: patent US20260007613A1

- Tested on: 293T cells
- Measurement notes: Fluorescent detection of Fluc-mRNA (cell transfection efficiency of LNP formulations)
- Format: cell-based
- Test settings: RLU of YK-312 / RLU of the lipid of the line
Threshold-based label: Multiples (YK-312) under 10 gives criterion met, Multiples (YK-312) not under 10 gives criterion not met.

Below are worked cases with known answers.
{"Molecule": "CCCCCCCCCCOC(=O)CCCN(CCCCCC(=O)OCC(CCCCCCCC)CCCCCCCC)C[C@H](O)CN(C)CCO [YK-301]", "Assayed system": "293T cells", "Discrete label": "criterion not met"}
{"Molecule": "CCCCCCCCC(CCCCCCCC)OC(=O)CCCCCCCN(CCCCCCCC(=O)OC(CCCCCCCC)CCCCCCCC)C[C@H](O)CN(CC)CCO [YK-314]", "Assayed system": "293T cells", "Discrete label": "criterion not met"}
{"Molecule": "CCCCCCC(CCCCCC)CCOC(=O)CCCCCCCN(CCO)CCCCCCCC(=O)OCCC(CCCCCC)CCCCCC [Compound 23, reference compound]", "Assayed system": "293T cells", "Discrete label": "criterion not met"}

Hi there! Is Multiples (YK-312) for CCCCCCCCCCC(CCCCCCCCCC)CCCOC(=O)CCCN(CCCC(=O)OCCCC(CCCCCCCCCC)CCCCCCCCCC)C[C@H](O)CN(CC)CCO [YK-315] below 10, do you know?
criterion not met

Hi there! Is Multiples (YK-312) for CCCCCCCCC(CCCCCCCC)COC(=O)CCCCCN(CCCCCC(=O)OCC(CCCCCCCC)CCCCCCCC)C[C@H](O)CN(C)CCO [YK-305] below 10, do you know?
criterion met

Hi there! Is Multiples (YK-312) for CCCCCCCCCCOC(=O)CCCN(CCCCCC(=O)OCC(CCCCCCCC)CCCCCCCC)C[C@H](O)CN(CC)CCO [YK-308] below 10, do you know?
criterion met
